Hey, just so you know, these numbers are from the kinase profiling compilation of Christmann-Franck et al. (2016).

# reported inhibition; entries follow
Target: UniProt:Q02156
Sequence (Q02156 whole entry, looked up): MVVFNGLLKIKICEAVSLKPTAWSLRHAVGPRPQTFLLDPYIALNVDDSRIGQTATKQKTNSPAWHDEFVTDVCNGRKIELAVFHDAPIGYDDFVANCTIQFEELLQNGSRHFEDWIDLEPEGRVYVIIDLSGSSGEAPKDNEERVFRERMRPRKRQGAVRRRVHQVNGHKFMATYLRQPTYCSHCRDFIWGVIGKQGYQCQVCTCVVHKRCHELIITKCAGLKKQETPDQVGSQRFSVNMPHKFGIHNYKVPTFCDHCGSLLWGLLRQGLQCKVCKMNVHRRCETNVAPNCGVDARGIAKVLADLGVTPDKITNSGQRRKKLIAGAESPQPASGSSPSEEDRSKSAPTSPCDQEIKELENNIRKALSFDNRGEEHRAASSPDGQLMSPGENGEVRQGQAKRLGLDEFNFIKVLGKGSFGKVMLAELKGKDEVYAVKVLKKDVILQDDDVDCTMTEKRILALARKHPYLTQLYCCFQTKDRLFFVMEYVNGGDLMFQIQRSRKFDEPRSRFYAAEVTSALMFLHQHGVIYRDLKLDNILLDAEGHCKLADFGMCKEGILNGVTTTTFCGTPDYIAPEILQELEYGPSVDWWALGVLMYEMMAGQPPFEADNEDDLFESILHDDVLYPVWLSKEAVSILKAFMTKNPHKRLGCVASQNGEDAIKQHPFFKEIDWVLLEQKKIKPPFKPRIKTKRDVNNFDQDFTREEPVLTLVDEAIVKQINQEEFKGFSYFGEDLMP
Test: split-luciferase competition binding
Details: compound 10.0 µM
Number first, unit second: that is the form wanted.

// lookup inhibition for CC(=O)c1c(O)c(C)c(O)c(Cc2c(O)c3c(c(C(=O)/C=C/c4ccccc4)c2O)OC(C)(C)C=C3)c1O
14%

Fill in the blank: the reported inhibition of CCN(CC)CCNC(=O)c1c(C)[nH]c(/C=C2\C(=O)Nc3ccc(F)cc32)c1C is ____.
22%

###

Target: UniProt Q16512
Sequence (Q16512 whole entry, looked up): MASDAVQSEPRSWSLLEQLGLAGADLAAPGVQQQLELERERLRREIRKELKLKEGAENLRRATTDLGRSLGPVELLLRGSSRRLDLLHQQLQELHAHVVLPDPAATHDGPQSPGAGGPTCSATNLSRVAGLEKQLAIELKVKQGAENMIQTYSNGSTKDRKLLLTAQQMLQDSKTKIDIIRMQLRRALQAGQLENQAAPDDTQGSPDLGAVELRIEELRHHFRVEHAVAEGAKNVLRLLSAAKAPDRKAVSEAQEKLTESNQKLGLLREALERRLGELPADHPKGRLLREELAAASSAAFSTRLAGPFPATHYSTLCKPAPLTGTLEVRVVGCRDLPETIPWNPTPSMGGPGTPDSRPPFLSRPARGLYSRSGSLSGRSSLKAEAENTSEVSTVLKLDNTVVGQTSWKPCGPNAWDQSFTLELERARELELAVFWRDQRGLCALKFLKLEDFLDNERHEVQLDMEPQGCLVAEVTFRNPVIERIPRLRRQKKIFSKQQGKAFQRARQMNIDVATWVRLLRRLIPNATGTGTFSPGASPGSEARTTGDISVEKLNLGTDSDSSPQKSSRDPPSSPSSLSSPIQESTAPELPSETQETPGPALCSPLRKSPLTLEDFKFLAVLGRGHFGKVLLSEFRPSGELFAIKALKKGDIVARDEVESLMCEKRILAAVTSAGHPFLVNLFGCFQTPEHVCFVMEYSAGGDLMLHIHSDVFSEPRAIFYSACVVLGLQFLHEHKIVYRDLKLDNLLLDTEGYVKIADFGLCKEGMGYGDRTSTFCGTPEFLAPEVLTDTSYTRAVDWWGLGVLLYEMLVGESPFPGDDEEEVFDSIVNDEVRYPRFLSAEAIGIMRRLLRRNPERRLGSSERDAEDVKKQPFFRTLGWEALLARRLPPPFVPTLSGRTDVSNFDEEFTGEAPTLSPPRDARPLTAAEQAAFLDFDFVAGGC
Experiment: split-luciferase competition binding
Conditions: compound 10.0 µM
measured.quantity: inhibition

Reference set (2 entries):
| smiles.structure | target.system | inhibition |
| --- | --- | --- |
| CC(C)[C@H](CO)Nc1nc(Nc2ccc(C(=O)O)c(Cl)c2)c2ncn(C(C)C)c2n1 | UniProt Q16512 | 0% |
| O=C1NC(=O)c2c1c1c3ccccc3n3c1c1c2c2ccccc2n1C1CCC3O1 | UniProt Q16512 | 10% |

For the compound shown here, CN1CCC(Nc2ncc3ncnc(Nc4ccc(F)c(Cl)c4)c3n2)CC1 , give the reported inhibition.
3%

Request the reported inhibition associated with Nc1ncnc2[nH]nc(Nc3ccc(F)cc3)c12
1%

Fill blank: measured inhibition of the compound O=C(Nc1cc(C(F)(F)F)cc(C(F)(F)F)c1)c1cc(Cl)ccc1O is ____.
0%

// lookup inhibition for O=c1cc(N2CCOCC2)oc2c(-c3ccccc3)cccc12
0%

Given the entry N#C/C(=C(/N)Sc1ccc(N)cc1)c1ccccc1C(F)(F)F , report its measured inhibition.
6%

###

Target: PRKCG (human) (UniProt P05129)
Experiment: split-luciferase competition binding
Details: compound 10.0 µM
Reported inhibition values are given for each entry in this list.
# output: numeric value plus its unit

| molecule | inhibition |
| --- | --- |
| CC[C@@H](CO)Nc1nc(NCc2ccccc2)c2ncn(C(C)C)c2n1 | 0% |

Bench note: what inhibition did CC(C)[C@H](CO)Nc1nc(Nc2cc(N)cc(Cl)c2)c2ncn(C(C)C)c2n1 show?
0%

Record request: inhibition value, item Oc1ccc(-c2nc(-c3ccc(F)cc3)c(-c3ccncc3)[nH]2)cc1
0%

Item under review: O=c1cc(N2CCOCC2)oc2c(-c3ccccc3)cccc12 . Reported inhibition?
0%

Query (molecule): Brc1c(Br)c(Br)c2[nH]nnc2c1Br ; field requested: inhibition
0%

Which inhibition value is on record for CN(C)CCCn1cc(C2=C(c3c[nH]c4ccccc34)C(=O)NC2=O)c2ccccc21 ?
11%

Query: inhibition; subject: Cc1cc2nc3c(=O)[nH]c(=O)nc-3n(C)c2cc1C=O
9%

What value of inhibition has been reported for the following molecule? Cc1ccc(NC(=O)c2cccc(N(C)C)c2)cc1NC(=O)c1ccc(O)cc1
0%

###

Target: PDPK1 (human)
Test: split-luciferase competition binding
Conditions: compound 10.0 µM
The entries below come with measured inhibition values attached.
All answers are understood in %, so give the number only.

// known answers, use as guide
| smiles.structure | measurement |
| --- | --- |
| N#C/C(=C\c1ccc(O)c(O)c1)C(=O)NCc1ccccc1 | 0 |
| Cc1cc(F)c(Nc2ncnc3cc(OCc4ccccc4)ccc23)cc1O | 2 |
| COc1cc2ncn(-c3cc(OCc4ccccc4C(F)(F)F)c(C(N)=O)s3)c2cc1OC | 2 |

Which inhibition is reported for this compound? NC(=O)c1ccc(-c2nc(-c3ccccn3)c(-c3ccc4c(c3)OCO4)[nH]2)cc1
0

Query: inhibition; subject: Cc1[nH]c(/C=C2\C(=O)Nc3ccc(S(=O)(=O)Cc4c(Cl)cccc4Cl)cc32)c(C)c1C(=O)N1CCC[C@@H]1CN1CCCC1
7

Fill in: inhibition of CC(C)N(CCC(=O)c1ccc2ccccc2c1)Cc1ccccc1 is ___
1

Recorded inhibition of O=S(=O)(c1cccc2c(O)nccc12)N1CCCNCC1 , please.
0

Consider the compound shown here: Cn1cnc2c(NCc3ccccc3)nc(NCCO)nc21 What is its recorded inhibition?
0

Fill in the blank: the reported inhibition of Cn1cc(C2=C(c3cn(CCCSC(=N)N)c4ccccc34)C(=O)NC2=O)c2ccccc21 is ____.
2

###

Known inhibition of a selection of molecules
Biological target: PRKCH (human) (UniProt P24723)
Sequence (P24723 whole entry, looked up): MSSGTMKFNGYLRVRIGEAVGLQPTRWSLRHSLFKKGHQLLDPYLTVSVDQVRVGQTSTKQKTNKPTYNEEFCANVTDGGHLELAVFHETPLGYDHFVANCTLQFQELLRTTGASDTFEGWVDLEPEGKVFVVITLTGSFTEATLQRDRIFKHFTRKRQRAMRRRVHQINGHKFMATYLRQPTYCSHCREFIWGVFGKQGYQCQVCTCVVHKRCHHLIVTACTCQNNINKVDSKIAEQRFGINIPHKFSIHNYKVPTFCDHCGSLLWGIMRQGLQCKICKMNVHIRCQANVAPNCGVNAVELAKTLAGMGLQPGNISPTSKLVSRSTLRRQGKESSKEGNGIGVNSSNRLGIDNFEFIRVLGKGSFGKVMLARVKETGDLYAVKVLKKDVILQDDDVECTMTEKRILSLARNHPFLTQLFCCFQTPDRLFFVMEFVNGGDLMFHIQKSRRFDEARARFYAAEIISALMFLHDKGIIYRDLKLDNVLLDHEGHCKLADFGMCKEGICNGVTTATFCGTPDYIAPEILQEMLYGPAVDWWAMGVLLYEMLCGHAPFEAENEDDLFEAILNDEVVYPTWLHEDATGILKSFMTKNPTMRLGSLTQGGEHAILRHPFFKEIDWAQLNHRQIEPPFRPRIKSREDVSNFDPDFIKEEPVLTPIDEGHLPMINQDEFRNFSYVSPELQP
Experiment: split-luciferase competition binding
Conditions: compound 10.0 µM
Write down the numeric answer in % and omit the unit.

| molecule | measured.quantity | measurement |
| --- | --- | --- |
| CN1CC[C@H](c2c(O)cc(O)c3c(=O)cc(-c4ccccc4Cl)oc23)[C@H](O)C1 | inhibition | 0 |
| CC1=C(O)C(=O)[C@@H]2OC2C1=O (stereo partly specified) | inhibition | 7 |
| Brc1c(Br)c(Br)c2[nH]nnc2c1Br | inhibition | 0 |

Which value of inhibition has been reported for Oc1ccc(-c2nc(-c3ccc(F)cc3)c(-c3ccncc3)[nH]2)cc1 in the records?
0

Look up inhibition: CC(C)N(CCC(=O)c1ccc2ccccc2c1)Cc1ccccc1
0

Item O=C1c2ccccc2-c2n[nH]c3cccc1c23 has what recorded inhibition?
0

Param item = CCN(CC)CCCCN1c2ccccc2Oc2ccc(Cl)cc21 ; retrieve measured inhibition.
0

Can you look up the measured inhibition of N#C/C(=C\c1ccc(O)c(O)c1)C(=O)NCc1ccccc1 for me?
0

###

// reported inhibition per item
Molecular target: PKN1 (human)
Experiment: split-luciferase competition binding
Details: compound 10.0 µM
All answers are understood in %, so give the number only.

These solved cases illustrate the format of a correct answer.
| compound | unit.string | measurement |
| --- | --- | --- |
| CC1=C(O)C(=O)[C@@H]2OC2C1=O (some centres undefined) | % | 0 |
| N#CC(=C(\N)Sc1ccccc1N)/C(C#N)=C(/N)Sc1ccccc1N | % | 0 |

For PKN1 (human), provide inhibition of O=C1Nc2ccc(I)cc2/C1=C/c1cc(Br)c(O)c(Br)c1 please.
4

###

Target: AURKC (human) (UniProt Q9UQB9)
Sequence (Q9UQB9 whole entry, looked up): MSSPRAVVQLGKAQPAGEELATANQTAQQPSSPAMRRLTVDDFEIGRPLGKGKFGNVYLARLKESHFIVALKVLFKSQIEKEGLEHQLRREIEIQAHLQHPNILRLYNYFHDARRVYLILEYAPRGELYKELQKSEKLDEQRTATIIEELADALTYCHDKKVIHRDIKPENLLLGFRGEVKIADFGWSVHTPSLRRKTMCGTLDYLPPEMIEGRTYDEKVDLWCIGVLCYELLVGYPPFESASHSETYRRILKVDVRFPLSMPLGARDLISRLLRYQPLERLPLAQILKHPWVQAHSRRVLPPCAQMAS
Assay: split-luciferase competition binding
Conditions: compound 10.0 µM
Listed next: entries and their corresponding inhibition.
Write the value in % as a bare number.

Answered examples (3):
| smiles.structure | unit.string | inhibition |
| --- | --- | --- |
| O=S(=O)(c1cccc2c(Cl)cccc12)N1CCCNCC1 | % | 0 |
| NC(=O)c1sc(-c2ccsc2)cc1N | % | 0 |
| CC(C)N(CCC(=O)c1ccc2ccccc2c1)Cc1ccccc1 | % | 0 |

I am curious: what inhibition value has been reported for O=C1NC(=O)c2c1c1c3ccccc3[nH]c1c1[nH]c3ccccc3c21 ?
35

Which value of inhibition has been reported for CC(=O)c1c(O)c(C)c(O)c(Cc2c(O)c3c(c(C(=O)/C=C/c4ccccc4)c2O)OC(C)(C)C=C3)c1O in the records?
8

###

Target: UniProt Q96BR1
Sequence (Q96BR1 whole entry, looked up): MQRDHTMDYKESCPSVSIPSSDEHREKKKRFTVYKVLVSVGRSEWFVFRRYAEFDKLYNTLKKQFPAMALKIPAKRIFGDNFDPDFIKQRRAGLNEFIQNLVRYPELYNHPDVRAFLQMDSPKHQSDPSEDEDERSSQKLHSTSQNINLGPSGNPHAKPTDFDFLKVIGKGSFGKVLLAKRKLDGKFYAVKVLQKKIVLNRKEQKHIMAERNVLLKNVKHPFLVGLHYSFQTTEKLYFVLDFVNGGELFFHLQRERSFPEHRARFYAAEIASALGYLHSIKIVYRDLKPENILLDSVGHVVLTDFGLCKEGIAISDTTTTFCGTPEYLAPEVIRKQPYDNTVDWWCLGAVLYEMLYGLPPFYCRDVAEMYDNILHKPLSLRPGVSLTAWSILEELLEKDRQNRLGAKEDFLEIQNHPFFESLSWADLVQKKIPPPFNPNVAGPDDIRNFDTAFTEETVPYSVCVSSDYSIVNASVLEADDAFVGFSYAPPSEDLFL
Assay: split-luciferase competition binding
Settings: compound 10.0 µM
measured.quantity: inhibition (%)
Please respond with the number in % and leave the unit unwritten.

Known results for compounds:
| compound | measurement |
| --- | --- |
| CS(=O)(=O)CCNCc1nc(-c2ccc3ncnc(Nc4ccc(OCc5cccc(F)c5)c(Cl)c4)c3c2)cs1 | 6 |
| CC(C)[C@H](CO)Nc1nc(Nc2cc(N)cc(Cl)c2)c2ncn(C(C)C)c2n1 | 5 |
| CC1=C(O)C(=O)[C@@H]2OC2C1=O (stereo partly specified) | 1 |
| Cc1cc2nc3c(=O)[nH]c(=O)nc-3n(C)c2cc1C=O | 0 |
| O=S(=O)(NCCNC/C=C/c1ccc(Br)cc1)c1cccc2cnccc12 | 41 |

Consider the compound shown here: Cc1ccccc1C(=O)c1ccc(Nc2ccc(Br)cc2N)cc1Cl What is its recorded inhibition?
0

Tell me the measured inhibition of CN(C)CCCn1cc(C2=C(c3c[nH]c4ccccc34)C(=O)NC2=O)c2ccccc21 , please.
2

Which measured inhibition value corresponds to CC[C@@H](CO)Nc1nc(NCc2ccccc2)c2ncn(C(C)C)c2n1 ?
0

Could you tell me which inhibition is on file for N#CC(=C(\N)Sc1ccccc1N)/C(C#N)=C(/N)Sc1ccccc1N ?
0

Fill in: inhibition of CN1CC[C@H](c2c(O)cc(O)c3c(=O)cc(-c4ccccc4Cl)oc23)[C@H](O)C1 is ___
0

Entry under review: O=C(NC(NC(=S)Nc1ccc(F)c([N+](=O)[O-])c1)C(Cl)(Cl)Cl)C(c1ccccc1)c1ccccc1 (stereo unspecified) . Reported inhibition?
0

Given O=S(=O)(c1cccc2cnccc12)N1CCCNCC1 , state its recorded inhibition.
0

Data request, read-out inhibition, for COc1cc2ncn(-c3cc(OCc4ccccc4C(F)(F)F)c(C(N)=O)s3)c2cc1OC
0

For the compound O=C(Nc1cc(C(F)(F)F)cc(C(F)(F)F)c1)c1cc(Cl)ccc1O , what inhibition is on record?
1

Form field: reported inhibition of N#C/C(=C\c1ccc(O)c(O)c1)C(N)=S
0

State the recorded inhibition for this entry: Cn1cc(C2=C(c3ccc(Cl)cc3Cl)C(=O)NC2=O)c2ccccc21
0

I have this compound here, COc1cc2nccc(Oc3ccc(NC(=O)Nc4ccc(F)cc4F)c(F)c3)c2cc1OC , and I need its recorded inhibition.
12
